Test system: HL-60 (human promyelocytic leukemia cells)
Assay: MTT inhibition of tumor cell growth, HL-60
Assay type: cell-based
Details: Table 5, derivatives having double Michael reaction acceptor, 48 h
Measured property: IC50 (µM)
// return numeric value only (unit: µM, not printed)

## Task So what's the measured IC50 for this one? [NH2][Pt]([NH2])([Cl])[Cl] [cis-DDP, reference compound]
## Result 1.81

====

Test system: SW-480 (human colon cancer cells)
Assay: MTT inhibition of tumor cell growth, SW-480
Type: cell-based
Settings: Table 4, derivatives obtained by reduction of the lactonic ring, 48 h, read-out: IC50 SW-480
Measured property: pIC50
// pIC50 is dimensionless: -log10 of concentration (M)

## Task So what's the measured pIC50 for this one? [NH2][Pt]([NH2])([Cl])[Cl] [cis-DDP, reference compound]
## Result 4.78

====

Each entry below lists one item and its recorded IC50 value.
Tested on: SW-480 (human colon cancer cells)
Assay: MTT inhibition of tumor cell growth, SW-480
Format: cell-based
Settings: Homo sapiens, SW480, 48 h, Table 1, 7-hydroxy derivatives of S-3, read-out: IC50 SW-480
// return numeric value only (unit: µM, not printed)

The cases that follow already have their IC50 on record.
[[record]]
compound = "C=C1C(=O)C23CC[C@H]1CC2[C@@]12CCC[C@@](C)(COC1=O)C2C[C@H]3OC(=O)CN=[N+]=[N-] (stereo partly drawn)"
tested_target = "SW-480 (human colon cancer cells)"
measured_property = "IC50"
measured_value = 2.37

[[record]]
compound = "C=C1C(=O)[C@]23CC[C@H]1CC2[C@@]12CCC[C@@](C)(COC1=O)C2C[C@@H]3S(=O)(=O)c1ccccc1[N+](=O)[O-] (stereo partly drawn)"
tested_target = "SW-480 (human colon cancer cells)"
measured_property = "IC50"
measured_value = 14.7

[[record]]
compound = "C=C1C(=O)[C@]23CC[C@H]1CC2[C@@]12CCC[C@@](C)(COC1=O)C2C[C@H]3O (stereo partly drawn)"
tested_target = "SW-480 (human colon cancer cells)"
measured_property = "IC50"
measured_value = 3.58

[[record]]
compound = "C=C1C(=O)[C@]23CC[C@H]1CC2[C@@]12CCC[C@@](C)(COC1=O)C2C[C@H]3OC(C)=O (stereo partly drawn)"
tested_target = "SW-480 (human colon cancer cells)"
measured_property = "IC50"
measured_value = 3.44


## Task So what's the measured IC50 for this one? C=C1C(=O)C23CC[C@H]1CC2[C@@]12CCC[C@@](C)(COC1=O)C2C[C@H]3OC(=O)CCCl (stereo partly drawn)
## Result 3.38

====

Test system: MCF-7 (human breast cancer cells)
Test: MTT inhibition of tumor cell growth, MCF-7
Assay type: cell-based
Details: Homo sapiens, MCF7, 48 h, Table 4, derivatives obtained by reduction of the lactonic ring
Measured property: IC50 (nM)
// return numeric value only (unit: nM, not printed)

The cases that follow already have their IC50 on record.
[[record]]
compound = "C=C1C(=O)C23CC[C@H]1CC2[C@]1(COC(C)=O)CCC[C@@](C)(COC(C)=O)C1CC3=O (stereo partly shown)"
measured_value = 3380

[[record]]
compound = "C=C1C(=O)[C@]23CC[C@H]1CC2[C@]1(COC(=O)N2CCOCC2)CCC[C@@](C)(COS(C)(=O)=O)C1CC3=O (stereo partly shown)"
measured_value = 3310

[[record]]
compound = "C=C1C(=O)C23CC[C@H]1CC2[C@]1(COS(C)(=O)=O)CCC[C@@](C)(COS(C)(=O)=O)C1C[C@H]3O (stereo partly shown) [Compound 72a]"
measured_value = 1550


## Task Request: IC50, test system MCF-7 (human breast cancer cells), entry C=C1C(=O)C23CC[C@H]1CC2[C@]1(COC(C)=O)CCC[C@@](C)(COC(=O)c2cccs2)C1CC3=O (stereo partly shown)
## Result 890

## Task How about C=C1C(=O)C23CC[C@H]1CC2[C@]1(COS(C)(=O)=O)CCC[C@@](C)(COC(=O)N2CCOCC2)C1CC3=O (stereo partly shown) ?
## Result 2050

## Task How about C=C1C(=O)[C@]23CC[C@H]1CC2[C@@]12CCC[C@@](C)(COC1=O)C2C[C@H]3O (stereo partly shown) ?
## Result 3250

## Task How about C=C1C(=O)C23CC[C@H]1CC2[C@]1(COCC#N)CCC[C@@](C)(COC(=O)c2cccs2)C1CC3=O (stereo partly shown) ?
## Result 650
